Measured values drawn from the supplement of paper PMC4466140 for this set.

subject-of-test: SpNbp2
protocol-summary: SPOT peptide array binding signal intensity (averaged, normalized) (arbitrary units (background-subtracted, floor 0; scale differs between SH3 domains)); higher = stronger binding of the SH3 domain to the peptide
# label = 1 (yes) if SPOT peptide array binding signal intensity >= 70 else 0 (no)

Reference set, count: 3
>  <binder>
FYHRPAPKPPVTKKV

>  <cat>
0 (no)

$$$$
>  <binder>
VQKRKLPLPGSIASA

>  <cat>
0 (no)

$$$$
>  <binder>
ITHRLRISIPGITGR

>  <cat>
1 (yes)

$$$$

### Prompt Hi team, for KTITLEVESSDTIDN , is the recorded SPOT peptide array binding signal intensity at or above 70?
### Response 0 (no)

### Prompt Hi team, for TKIRRRPQQPLTDFT , is the recorded SPOT peptide array binding signal intensity at or above 70?
### Response 0 (no)

### Prompt Hi team, for RKRAPTPPAPSRSEK , is the recorded SPOT peptide array binding signal intensity at or above 70?
### Response 0 (no)

### Prompt Hi team, for QQNRPLPQLPNRNNR , is the recorded SPOT peptide array binding signal intensity at or above 70?
### Response 0 (no)

### Prompt Hi team, for DRIRMFIRFPKFLLE , is the recorded SPOT peptide array binding signal intensity at or above 70?
### Response 1 (yes)

### Prompt Hi team, for APKHAPPPVPNETDN , is the recorded SPOT peptide array binding signal intensity at or above 70?
### Response 0 (no)

### Prompt Hi team, for NLPKRKPPKLQGPFS , is the recorded SPOT peptide array binding signal intensity at or above 70?
### Response 1 (yes)

### Prompt Hi team, for NNFYRPLLRSVLVLL , is the recorded SPOT peptide array binding signal intensity at or above 70?
### Response 0 (no)

### Prompt Hi team, for VRVKKRPLIRPLNSS , is the recorded SPOT peptide array binding signal intensity at or above 70?
### Response 1 (yes)

### Prompt Hi team, for QDKEGIPPDQQRLIF , is the recorded SPOT peptide array binding signal intensity at or above 70?
### Response 0 (no)

### Prompt Hi team, for DKKTKPTPPPKPSHL , is the recorded SPOT peptide array binding signal intensity at or above 70?
### Response 0 (no)

### Prompt Hi team, for VATSTSPKLPPRGKQ , is the recorded SPOT peptide array binding signal intensity at or above 70?
### Response 0 (no)
